target: Bcl-2 protein (Recombinant Human Bcl-2 Protein) (Homo sapiens); construct: purchased Novus Biologicals NBP2-34889; experiment: AS-MS evaluation of binding of the Example 4 mixture library (1200 compounds/well) to Bcl-2, ASMS ratio (%); details: AS-MS, Example 4 mixture library, Bcl-2, replicate n = 1
Sequence (P10415 whole entry): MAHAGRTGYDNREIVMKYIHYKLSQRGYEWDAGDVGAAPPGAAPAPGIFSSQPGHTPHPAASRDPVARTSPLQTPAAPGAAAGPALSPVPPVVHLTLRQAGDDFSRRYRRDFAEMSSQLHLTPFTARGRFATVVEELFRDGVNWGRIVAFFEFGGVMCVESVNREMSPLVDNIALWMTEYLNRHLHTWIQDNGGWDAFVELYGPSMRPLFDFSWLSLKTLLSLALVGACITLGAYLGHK
Kindly supply the reported ASMS ratio (%) n = 1 values for the records listed here.

Reference set (5 entries):
In [3]: df
Out[3]:
                                     smiles           metric_name  value
0  CCOc1cccc(C#Cc2cncc(C(=O)N3CCN(c4ccc(C(=O)NS(=O)(=O)CCC(F)(F)F)nn4)CC3)c2)c1  ASMS ratio (%) n = 1   0.0%
1  CCOc1cncc(-c2ccc(CN3CCN(c4ccc(C(=O)NS(=O)(=O)c5ccc(NCCSc6ccccc6)c(C(F)(F)F)c5)cc4)CC3)cc2C)c1  ASMS ratio (%) n = 1   9.2%
2  CCOc1cncc(-c2csc(C(=O)N3CCN(c4ccc(C(=O)NS(=O)(=O)CCC(F)(F)F)cc4)CC3)c2)c1  ASMS ratio (%) n = 1   0.0%
3  CCOc1cccc(-c2csc(C(=O)N3CCN(c4ccc(C(=O)NS(=O)(=O)c5ccc(NCCSc6ccccc6)c(C(F)(F)F)c5)cc4)CC3)c2)c1  ASMS ratio (%) n = 1   0.0%
4  CCOc1cccc(-c2cc(CN3CCN(c4ccc(C(=O)NS(=O)(=O)c5ccc(NCCSc6ccccc6)c(C(F)(F)F)c5)nn4)CC3)cc(OC(C)C)c2)c1  ASMS ratio (%) n = 1  31.9%

Look at each compound and report its ASMS ratio (%) n = 1.
1. CCOc1cccc(C#Cc2ccccc2CN2CCN(c3ccc(C(=O)NS(=O)(=O)CCC(F)(F)F)nn3)CC2)c1
2. CCOc1cccc(-c2ccc(CN3CCN(c4ccc(C(=O)NS(=O)(=O)c5ccc(NCCSc6ccccc6)c(C(F)(F)F)c5)cc4)CC3)c(CC)c2)c1
3. CCOc1cccc(-c2ccc(CN3CCN(c4ccc(C(=O)NS(=O)(=O)CCC(F)(F)F)cc4)CC3)cc2F)c1

1: 0.0%; 2: 7.5%; 3: 0.0%

Look at each compound and report its ASMS ratio (%) n = 1.
1. CCOc1cccc(-c2cc(CN3CCN(c4ccc(C(=O)NS(=O)(=O)CCC(F)(F)F)nn4)CC3)cc(C(F)(F)F)c2)c1
2. CCOc1cccc(-c2cc(C(=O)N3CCN(c4ccc(C(=O)NS(=O)(=O)CCC(F)(F)F)cc4)CC3)cc(C(C)(C)C)c2)c1
3. CCOc1cncc(-c2cc(CN3CCN(c4ccc(C(=O)NS(=O)(=O)CCC(F)(F)F)nn4)CC3)cc(OC(C)C)c2)c1
4. CCOc1cccc(-c2csc(CN3CCN(c4ccc(C(=O)NS(=O)(=O)CCC(F)(F)F)nn4)CC3)c2)c1

0.0%
0.0%
0.0%
0.0%
